Attribute: GI50
Tested on: SK-MEL-2
TEST_NAME: NCI tumour cell line growth inhibition, 48 h
Activity calls are given as the source filed them. Rule as the data show it: active = GI50 up to about 1.1 µM and inactive = higher.

[
  {
    "COMPOUND": "Cc1cc2c(cc1C)C(=O)/C(=C/c1ccccc1C(=O)O)C2",
    "MEASURED_RESULT": "35.4 µM (inactive)"
  },
  {
    "COMPOUND": "CC(C)[C@H]1NC(=O)[C@H]2N=C(O[C@@H]2C)[C@@H]2CCCN2C(=O)[C@H](Cc2ccccc2)NC(=O)[C@@H]2COC(=N2)[C@@H](Cc2ccccc2)NC(=O)[C@@H]2COC1=N2",
    "MEASURED_RESULT": "> 100 µM (inactive)"
  },
  {
    "COMPOUND": "COc1cc(/C=C2\\C[C@H]3[C@@H]4CCC5=CC(=O)CC[C@]5(C)[C@H]4CC[C@]3(C)C2=O)cc(OC)c1OC",
    "MEASURED_RESULT": "7.19 µM (inactive)"
  }
]

Query compound follows.
What value of GI50 has been reported for the following compound? CCC(C#N)N(Cc1cccc(CN(C(C)=O)C(C#N)CC)c1)C(C)=O (centres undefined) > 100 µM (inactive)

----------
Attribute: GI50
Tested on: T47D
TEST_NAME: NCI tumour cell line growth inhibition, 48 h
Active and inactive are the calls of the source. Cut-off read from the data, not from the text of the source: active = GI50 up to about 1.1 µM and inactive = higher.

Use these answered entries as a reference point.
[
  {
    "COMPOUND": "CC(C)(C)c1cc(OCc2nnc3sc(-c4ccc(Cl)cc4)nn23)c(Cl)cc1OCc1nnc2sc(-c3ccc(Cl)cc3)nn12",
    "MEASURED_METRIC": "GI50",
    "MEASURED_RESULT": "1.97 µM (inactive)"
  },
  {
    "COMPOUND": "COc1ccccc1/C=N/Nc1nnc2c3ccccc3c3ncccc3c2n1",
    "MEASURED_METRIC": "GI50",
    "MEASURED_RESULT": "39.7 µM (inactive)"
  },
  {
    "COMPOUND": "CC[C@@H]1CN2CCC1C[C@@H]2C(O)c1ccnc2ccc(OCCN3CCN(CCOc4ccc5nccc(C(O)[C@@H]6C[C@@H]7CCN6C[C@@H]7CC)c5c4)CC3)cc12 (some centres undefined)",
    "MEASURED_METRIC": "GI50",
    "MEASURED_RESULT": "19.7 µM (inactive)"
  },
  {
    "COMPOUND": "Cn1c2ccccc2c(=NNc2ccc(S(=O)(=O)N=C(N)N)cc2)c2ccccc21",
    "MEASURED_METRIC": "GI50",
    "MEASURED_RESULT": "6.35 µM (inactive)"
  },
  {
    "COMPOUND": "CN1C2CCC1CN(CCOC(c1ccc(F)cc1)c1ccc(F)cc1)C2",
    "MEASURED_METRIC": "GI50",
    "MEASURED_RESULT": "24.3 µM (inactive)"
  },
  {
    "COMPOUND": "CC(C)(CCCCC(C)(C)C1NC(=O)N1)C1NC(=O)N1",
    "MEASURED_METRIC": "GI50",
    "MEASURED_RESULT": "> 10 µM (inactive)"
  }
]

What value of GI50 has been reported for the following compound? "Cc1ccccc1/N=N/c1ccc(/N=N/c2c(O)ccc3ccccc23)c(C)c1" > 100 µM (inactive)

What value of GI50 has been reported for the following compound? O=C(O)C1C2C=CC(O2)C1C(=O)Nc1ncccn1 (centres undefined) > 100 µM (inactive)

What value of GI50 has been reported for the following compound? CC1(CC(=O)O)OC2CCCCCC2O1.NCc1ccccc1 (centres undefined) 92.9 µM (inactive)
